# target_of_assay: p38 MAPKα isoform (MAPK14) (Homo sapiens, UniProt Q16539)
# Construct: purchased Life Technologies
# Sequence (Q16539 whole entry, canonical isoform): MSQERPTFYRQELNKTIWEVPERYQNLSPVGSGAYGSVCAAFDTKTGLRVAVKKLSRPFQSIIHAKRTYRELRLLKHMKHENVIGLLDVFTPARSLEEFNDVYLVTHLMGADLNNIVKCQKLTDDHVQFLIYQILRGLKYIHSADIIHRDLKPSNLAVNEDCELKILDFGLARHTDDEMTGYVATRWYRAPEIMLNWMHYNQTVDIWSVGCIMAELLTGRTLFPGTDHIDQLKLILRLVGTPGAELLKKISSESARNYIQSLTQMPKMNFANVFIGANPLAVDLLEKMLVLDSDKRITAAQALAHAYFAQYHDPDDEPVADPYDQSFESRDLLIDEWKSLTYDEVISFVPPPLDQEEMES
# test_name: p38 MAPKα enzyme inhibition (Z-LYTE FRET)
# Type: biochemical
# experimental_parameters: Table 2B, unit inferred; read-out: p38 MAPKα (Enzyme Profile)
test_readout: IC50 (nM)

>  <structure_as_smiles>
Cc1ccc(-n2nc(C(C)(C)C)cc2NC(=O)Nc2ccc(OCc3ccnc(Nc4cnc(C(=O)N5CCS(=O)(=O)CC5)cn4)c3)c3ccccc23)cc1

>  <unit_symbol>
nM

>  <IC50>
8.5

$$$$
>  <structure_as_smiles>
CO[C@@H]1CCN(C(=O)c2cnc(Nc3cc(COc4ccc(NC(=O)Nc5cc(C(C)(C)C)nn5-c5cccc(C)c5)c5ccccc45)ccn3)cn2)C1

>  <unit_symbol>
nM

>  <IC50>
11

$$$$
>  <structure_as_smiles>
Cc1ccc(-n2nc(C(C)(C)C)cc2NC(=O)Nc2ccc(OCc3ccnc(Nc4cnc(C(=O)N5CCC5)cn4)c3)c3ccccc23)cc1

>  <unit_symbol>
nM

>  <IC50>
55

$$$$
>  <structure_as_smiles>
Cc1cccc(-n2nc(C(C)(C)C)cc2NC(=O)Nc2ccc(OCc3ccnc(Nc4cnc(CO)cn4)c3)c3ccccc23)c1

>  <unit_symbol>
nM

>  <IC50>
5.6

$$$$

(I) COc1cc(F)cc(-n2nc(C(C)(C)C)cc2NC(=O)Nc2ccc(OCc3ccnc(Nc4cnccn4)c3)c3ccccc23)c1
(II) CCc1ccc(-n2nc(C(C)(C)C)cc2NC(=O)Nc2ccc(OCc3ccnc(Nc4cncc(CC)n4)c3)c3ccccc23)cc1
(III) Cc1ccc(-n2nc(C(C)(C)C)cc2NC(=O)Nc2ccc(OCc3ccnc(Nc4cnc(C(=O)N5CC[C@@H](N(C)C)C5)cn4)c3)c3ccccc23)cc1
(IV) COCc1cccc(-n2nc(C(C)(C)C)cc2NC(=O)Nc2ccc(OCc3ccnc(Nc4cnc(C(=O)NCCN5CCOCC5)cn4)c3)c3ccccc23)c1
(V) CC(C)(C)c1cc(NC(=O)Nc2ccc(OCc3ccnc(Nc4cnccn4)c3)c3ccccc23)n(-c2cccc(CO)c2)n1
Data request: Hey, can you sort those compounds up there by IC50, smallest first? Please list the labels according to the requested order.
Data returned: III, IV, V, I, II

---

# target_of_assay: p38 MAPKα isoform (MAPK14) (Homo sapiens, UniProt Q16539)
# Construct: purchased Life Technologies
# test_name: p38 MAPKα enzyme inhibition (Z-LYTE FRET)
# Type: biochemical
# experimental_parameters: Table 2B, unit inferred; read-out: p38 MAPKα (Enzyme Profile)
test_readout: IC50 (µM)

(a) Cc1ccc(-n2nc(C(C)(C)C)cc2NC(=O)Nc2ccc(OCc3ccnc(Nc4cnc(CN5CCOCC5)cn4)c3)c3ccccc23)cc1
(b) CCc1cncc(Nc2cc(COc3ccc(NC(=O)Nc4cc(C(C)(C)C)nn4-c4cc(C)cc(OC)c4)c4ccccc34)ccn2)n1
(c) COCc1ccc(-n2nc(C(C)(C)C)cc2NC(=O)Nc2ccc(OCc3ccnc(Nc4cnccn4)c3)c3ccccc23)cc1
Data request: Rank items: key IC50, increasing. Dear reader, please state the labels in the requested order.
Data returned: c, a, b

---

# target_of_assay: p38MAPKγ (MAPK12) (Homo sapiens, UniProt P53778)
# Construct: purchased Life Technologies
# Sequence (P53778 whole entry): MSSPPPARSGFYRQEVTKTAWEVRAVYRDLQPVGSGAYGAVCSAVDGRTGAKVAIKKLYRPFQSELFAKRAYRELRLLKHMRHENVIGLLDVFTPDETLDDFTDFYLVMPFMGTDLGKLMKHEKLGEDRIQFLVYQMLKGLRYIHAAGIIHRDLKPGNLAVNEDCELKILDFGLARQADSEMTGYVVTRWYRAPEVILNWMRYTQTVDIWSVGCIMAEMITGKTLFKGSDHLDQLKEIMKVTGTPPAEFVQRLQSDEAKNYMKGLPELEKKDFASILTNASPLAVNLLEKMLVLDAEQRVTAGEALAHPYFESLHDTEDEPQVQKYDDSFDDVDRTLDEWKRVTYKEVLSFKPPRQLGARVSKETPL
# test_name: p38 MAPKγ enzyme inhibition (Z-LYTE FRET)
# Assay type: biochemical
# experimental_parameters: Table 2B, unit inferred; read-out: p38 MAPKγ (Enzyme Profile)
test_readout: IC50 (nM)

>  <structure_as_smiles>
COc1cccc(-n2nc(C(C)(C)C)cc2NC(=O)Nc2ccc(OCc3ccnc(Nc4cnc(C(=O)N5CCCC5)cn4)c3)c3ccccc23)c1

>  <target_of_assay>
p38MAPKγ (MAPK12) (Homo sapiens, UniProt P53778)

>  <unit_symbol>
nM

>  <IC50>
401

$$$$

(1) COc1cncc(Nc2cc(COc3ccc(NC(=O)Nc4cc(C(C)(C)C)nn4-c4ccc(C)s4)c4ccccc34)ccn2)n1
(2) COCC1CN(C(=O)c2cnc(Nc3cc(COc4ccc(NC(=O)Nc5cc(C(C)(C)C)nn5-c5ccc(C)cc5)c5ccccc45)ccn3)cn2)C1
Data request: // pick min by IC50: 1 , 2 Answer with the label corresponding to your selection.
Data returned: 2
(2: 342 nM, 1: 1330 nM)

---

# target_of_assay: p38MAPKγ (MAPK12) (Homo sapiens)
# Construct: purchased Life Technologies
# test_name: p38 MAPKγ enzyme inhibition (Z-LYTE FRET)
# Assay type: biochemical
# experimental_parameters: Table 2B, unit inferred; read-out: p38 MAPKγ (Enzyme Profile)
test_readout: IC50 (nM)

>  <structure_as_smiles>
Cc1ccc(-n2nc(C(C)(C)C)cc2NC(=O)Nc2ccc(OCc3ccnc(Nc4cnc(C(=O)NCC(C)(C)N5CCOCC5)cn4)c3)c3ccccc23)cc1

>  <endpoint_value>
289

$$$$

(P) Cc1ccc(-n2nc(C(C)(C)C)cc2NC(=O)Nc2ccc(OCc3ccnc(Nc4cnc(C(=O)NCCN5CCCC5)cn4)c3)c3ccccc23)cc1
(Q) Cc1ccc(-n2nc(C(C)(C)C)cc2NC(=O)Nc2ccc(OCc3ccnc(Nc4cnc(C(=O)N[C@@H]5CCN(C)C5)cn4)c3)c3ccccc23)cc1
Data request: I need your help: which of the pair P , Q has higher IC50? Respond with the label that goes with your answer.
Data returned: Q
(Q: 46 nM, P: 19 nM)

---

# target_of_assay: p38MAPKγ (MAPK12) (Homo sapiens)
# Construct: purchased Life Technologies
# test_name: p38 MAPKγ enzyme inhibition (Z-LYTE FRET)
# Format: biochemical
# experimental_parameters: Table 2B, unit inferred; read-out: p38 MAPKγ (Enzyme Profile)
test_readout: IC50 (nM)

(a) CO[C@@H]1CCN(C(=O)c2cnc(Nc3cc(COc4ccc(NC(=O)Nc5cc(C(C)(C)C)nn5-c5ccc(C)cc5)c5ccccc45)ccn3)cn2)C1
(b) Cc1ccc(-n2nc(C(C)(C)C)cc2NC(=O)Nc2ccc(OCc3ccnc(Nc4cncc(CCCO)n4)c3)c3ccccc23)cc1
(c) CCc1cncc(Nc2cc(COc3ccc(NC(=O)Nc4cc(C(C)(C)C)nn4-c4cc(F)cc(OC)c4)c4ccccc34)ccn2)n1
Data request: // sort listed items: IC50 descending // format: requested-order list of labels
Data returned: c, a, b
(c: 582 nM, a: 319 nM, b: 31 nM)

---

# target_of_assay: p38 MAPKα isoform (MAPK14) (Homo sapiens, UniProt Q16539)
# Construct: purchased Life Technologies
# test_name: p38 MAPKα enzyme inhibition (Z-LYTE FRET)
# Assay type: biochemical
# experimental_parameters: Table 2B, unit inferred; read-out: p38 MAPKα (Enzyme Profile)
pIC50: −log10 of the molar value.
test_readout: pIC50

>  <structure_as_smiles>
CCCc1cncc(Nc2cc(COc3ccc(NC(=O)Nc4cc(C(C)(C)C)nn4-c4cccc(OC)c4)c4ccccc34)ccn2)n1

>  <test_readout>
pIC50

>  <endpoint_value>
7.14

$$$$

(A) Cc1ccc(-n2nc(C(C)(C)C)cc2NC(=O)Nc2ccc(OCc3ccnc(Nc4cnc(C(=O)NCCOC(C)C)cn4)c3)c3ccccc23)cc1
(B) CCc1cnc(Nc2cc(COc3ccc(NC(=O)Nc4cc(C(C)(C)C)nn4-c4ccc(C)c(C)c4)c4ccccc34)ccn2)cn1
Data request: Dear colleague, could you let me know whether A or B has the lower recorded pIC50? Thanks. Return value: the label identifying the chosen record.
Data returned: A
(A: 6.54, B: 7.46)

---

pIC50: −log10 of the molar value.
Let's go through some recorded pIC50 values for UniProt:P12931 together.
Sequence (P12931 whole entry): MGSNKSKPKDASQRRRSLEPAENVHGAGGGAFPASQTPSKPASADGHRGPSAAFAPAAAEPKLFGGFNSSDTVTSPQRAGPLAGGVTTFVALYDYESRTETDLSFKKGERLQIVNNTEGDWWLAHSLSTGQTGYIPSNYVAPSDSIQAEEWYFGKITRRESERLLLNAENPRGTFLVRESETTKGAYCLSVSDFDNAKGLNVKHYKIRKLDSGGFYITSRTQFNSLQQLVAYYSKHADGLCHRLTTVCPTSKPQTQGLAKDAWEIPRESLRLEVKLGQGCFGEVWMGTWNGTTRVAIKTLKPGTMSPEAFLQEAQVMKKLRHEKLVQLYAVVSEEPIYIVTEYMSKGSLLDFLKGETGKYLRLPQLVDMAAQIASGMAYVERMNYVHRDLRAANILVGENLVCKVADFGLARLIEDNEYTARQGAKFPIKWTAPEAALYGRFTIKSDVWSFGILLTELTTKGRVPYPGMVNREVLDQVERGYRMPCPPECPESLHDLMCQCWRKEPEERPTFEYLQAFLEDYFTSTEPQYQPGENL
test_readout: pIC50

>  <structure_as_smiles>
Cc1ccc(-n2nc(C(C)(C)C)cc2NC(=O)Nc2ccc(OCc3ccnc(Nc4cncc(C)n4)c3)c3ccccc23)cc1

>  <pIC50>
6.82

$$$$
>  <structure_as_smiles>
COc1ccc(-n2nc(C(C)(C)C)cc2NC(=O)Nc2ccc(OCc3ccnc(Nc4cnccn4)c3)c3ccccc23)cn1

>  <pIC50>
6.98

$$$$
>  <structure_as_smiles>
Cc1ccc(-n2nc(C(C)(C)C)cc2NC(=O)Nc2ccc(OCc3ccnc(Nc4cnccn4)c3)c3ccccc23)cc1C

>  <pIC50>
6.80

$$$$

(P) COc1ccc(-n2nc(C(C)(C)C)cc2NC(=O)Nc2ccc(OCc3ccnc(Nc4cnccn4)c3)c3ccccc23)cc1
(Q) Cc1ccc(-n2nc(C(C)(C)C)cc2NC(=O)Nc2ccc(OCc3ccnc(Nc4cnc(C(=O)N5CCCC5)cn4)c3)c3ccccc23)cc1
Data request: # compare pIC50 for P vs Q ; return the one with the smaller value Kindly give the label for the entry you pick.
Data returned: P
(P: 6.82, Q: 7.21)

---

// values below are reported IC50
# target_of_assay: p38MAPKγ (MAPK12) (Homo sapiens)
# Construct: purchased Life Technologies
# test_name: p38 MAPKγ enzyme inhibition (Z-LYTE FRET)
# Assay type: biochemical
# experimental_parameters: Table 2B, unit inferred; read-out: p38 MAPKγ (Enzyme Profile)

Data request: Reported IC50, molecule CCOc1ccc(-n2nc(C(C)(C)C)cc2NC(=O)Nc2ccc(OCc3ccnc(Nc4cnccn4)c3)c3ccccc23)cc1F [Example 183] : ____
Data returned: > 15.5 µM

Data request: Return reported IC50; argument: Cc1ccc(-n2nc(C(C)(C)C)cc2NC(=O)Nc2ccc(OCc3ccnc(Nc4cnc(C(=O)N5CCCCC5)cn4)c3)c3ccccc23)cc1 [Example 137]
Data returned: > 14.1 µM

Data request: Any idea what IC50 was measured for CO[C@@H]1CCN(C(=O)c2cnc(Nc3cc(COc4ccc(NC(=O)Nc5cc(C(C)(C)C)nn5-c5cccc(C)c5)c5ccccc45)ccn3)cn2)C1 [Example 199] ?
Data returned: > 13.8 µM

Data request: Query: IC50; subject: Cc1cc(C)cc(-n2nc(C(C)(C)C)cc2NC(=O)Nc2ccc(OCc3ccnc(Nc4cnc(C(=O)N5CCCC5)cn4)c3)c3ccccc23)c1 [Example 218]
Data returned: > 14.1 µM
